# System: KM12 colon
# TEST SUMMARY: NCI-60 one-dose screen, 48 h
# RUN CONDITIONS: 10 µM unless noted
# Method: Growth inhibition of the KM12 human tumor cell line is measured as a screen for anti-cancer activity. Cells are grown in 96 well plates and exposed to the test compound for 48 hours. Compounds are tested at a single concentration, which is 10^-5 M for most compounds. The reported endpoint is percent growth (GI% or GIPRCNT), where numbers from 0 - 100% represent growth inhibition, and numbers from -100% - 0 represent cell death. For example, a value of 40 represents 60% growth inhibition. […]
This is part of a sample that, as a whole, favours compounds with a hit. Of some 83,000 tested, about 20% had one in any assay. The source made the active and inactive calls. How the source made its calls: active means growth percent below 10; inactive means the rest.
Possible outcomes: 1 (yes) for active, 0 (no) for inactive

COMPOUND	GROUP LABEL
Cc1ccc(NC(=O)c2ccc(CN3CC[C@H](N(C)C)C3)c(C(F)(F)F)c2)cc1Nc1nccc(-c2cncnc2)n1	0 (no)
CN1CCN(Cc2ccc(NC(=O)c3[nH]ncc3Nc3ncnc4sc5c(c34)CCCC5)cc2)CC1	1 (yes)
CN1CC[C@H](c2c(O)cc(O)c3c(=O)cc(-c4ccccc4Cl)oc23)[C@H](O)C1	1 (yes)
Cc1cc(C(=O)NOCCO)c(Nc2ccc(I)cc2F)n(C)c1=O	0 (no)
O=C(Cn1ccc2ccccc21)Nc1ccc(-c2nc3ccccc3s2)cc1	0 (no)
Cc1nn(-c2ccccc2)c2c1N=c1s/c(=C\c3cn(-c4ccccc4)nc3-c3ccc(Cl)cc3)c(=O)n1C(C)N2 (stereo not drawn)	0 (no)
CC(=O)c1cnc2ccc(-c3cc(Cl)c(O)c(Cl)c3)nc2c1NC1CCC(CN(C)C)CC1 (stereo not drawn)	1 (yes)
COC(=O)[C@]12CC[C@@H](C)[C@H](C)[C@@H]1C1=CC[C@@H]3[C@@]4(C)C[C@@H](OC(=O)/C=C/c5ccccc5)[C@H](O)[C@@](C)(CO)[C@@H]4[C@H](O)C[C@@]3(C)[C@]1(C)CC2	1 (yes)

The origin of these recorded values is PubChem BioAssay (NCI).
